In this section, each of the binders is paired with its reported pKd.
Target: bovine trypsin (bovine), P00760
Sequence (P00760 24-246): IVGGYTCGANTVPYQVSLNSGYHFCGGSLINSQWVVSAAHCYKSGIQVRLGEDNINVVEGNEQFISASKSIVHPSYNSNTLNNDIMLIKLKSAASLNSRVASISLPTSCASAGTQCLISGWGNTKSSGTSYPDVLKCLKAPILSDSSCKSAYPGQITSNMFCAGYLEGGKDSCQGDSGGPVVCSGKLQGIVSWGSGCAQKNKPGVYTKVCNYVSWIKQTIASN
Experiment: SPR, bovine trypsin
pKd: −log10 of the molar value.

BINDER	CENSOR SYMBOL	pKd
DGGVCPKILKKCRRDSDCPGACICRGNGYCGSGS (modifications not checked) [MCoTI-II (Momordica cochinchinensis trypsin inhibitor-II), chemically synthesized, cyclic]	>	10.00
DGGICPRIGRLCRRDSDCPGACICRATRFCGSGY (modifications not checked) [MCoFx1 cyclic]	=	7.50
DGGVCPRVGWRCRRDSDCPGACICYPTKWCGSGS (modifications not checked) [MCoFx4 acyclic]	=	7.82
DGGICPRILVYCRRDSDCPGACICIRRTYCGSGS (modifications not checked) [MCoFx2 cyclic]	>	10.00
DGGICPRIGRLCRRDSDCPGACICRATRFCGSGY (modifications not checked) [MCoFx1 acyclic]	=	7.22
DGGVCPRVGWRCRRDSDCPGACICYPTKWCGSGS (modifications not checked) [MCoFx4 cyclic]	=	8.39
